experiment: NCI Yeast Anticancer Drug Screen. Data for the sgs1 mgt1 strain (AID 161);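 note: 0% = growth of cultures given vehicle only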; settings: S. cerevisiae sgs1 mgt1 strain, at 50.0 µM (retest, dose inferred, filed as 5.0), active compounds read high
This is part of a sample that, as a whole, favours compounds with a hit. Of some 79,000 tested, about 15% had one in any assay.
Recorded growth inhibition values for a group of molecules are listed next.
Answer in %, number only, no unit symbol.

- Molecule: "O=C(/C=C/c1cc(Cl)cc(Cl)c1O)c1cccc(O)c1"
  growth inhibition (%): 95
- Molecule: "CCC(C)NC1=NCC(C)S1 (stereo not given)"
  growth inhibition (%): 30
- Molecule: "CCc1nc2ccc(NCCN(C)C)c3c(=O)c4ccccc4n1c23"
  growth inhibition (%): 28
- Molecule: "Cc1ccc(NC(=O)/C(CC2N=c3c(ccc4c(O)c5ccccc5c(O)c34)=NC2O)=N/NC(C)(C)C)cc1 (stereo not given)"
  growth inhibition (%): 2
- Molecule: "COC(=O)C1(C)CCc2c(ccc3ccccc23)C1=O (stereo not given)"
  growth inhibition (%): 47
- Molecule: "O=C1c2cccnc2C(=O)C2C3C=CC(C3)C12 (stereo not given)"
  growth inhibition (%): 98
- Molecule: "COc1cccc(/C=N/C(/N=C/c2cccc(OC)c2O)c2cccc(OC)c2O)c1O"
  growth inhibition (%): 71
- Molecule: "O=C(O)c1cc2ccc(Cl)cc2c(O)c1C1=CCCCC1"
  growth inhibition (%): 76
- Molecule: "CCOC(=O)c1[nH]cc(C)c1-c1cccn1-c1ccc(Cl)cc1[N+](=O)[O-]"
  growth inhibition (%): 87
- Molecule: "OC(/C=C/c1ccccc1)(Cc1cc(-c2ccccc2)n[nH]1)c1ccccc1 (stereo not given)"
  growth inhibition (%): 97

[ask] What does the record list as growth inhibition for N=C1N=Nc2nc(C3(c4nc5n(c4O)C(=N)N=N5)Cc4ccccc4C3=O)c(O)n21 (stereo not given) ?
[reply] 70

[ask] State the recorded growth inhibition for this entry: CCOC(=O)COc1c(OC)cc(C2C3=C(COC3=O)Oc3cc4c(cc32)OCO4)cc1OC (stereo not given)
[reply] 19

[ask] Suppose we examine the molecule C[C](C)(C)[Ge]([O][Ge]([c]1ccccc1)[c]1ccccc1)([O][Ge]([c]1ccccc1)[c]1ccccc1)[C](C)(C)C ; what growth inhibition value has been reported?
[reply] 80

[ask] # lookup: growth inhibition of c1ccc2c(c1)sc1c3cnccc3ccc21
[reply] -34

[ask] Item under review: COc1ccc(/C=C2\NC(=S)N(/C=C3\C(=O)Oc4ccccc4C3=O)C2=O)cc1 . Reported growth inhibition?
[reply] 8

[ask] Give the measured growth inhibition of Cc1cccc(/C=N/NC(=S)N2CCCC2)n1 .
[reply] 47

[ask] Returns the measured growth inhibition for the input molecule. Input: CN(C)[C@@H]1C(=O)C(C(N)=O)=C(O)[C@@]2(O)C(=O)C3=C(O)c4c(O)cccc4C[C@H]3C[C@@H]12
[reply] 99

[ask] Dear colleague, I am looking for the recorded growth inhibition of the following molecule: CCCCCCC(O)CNCc1ccnc2ccc(OC)cc12 (stereo not given)
[reply] 61

[ask] Look up growth inhibition for this molecule: CCOC(=O)/C(=C\c1ccc(C#N)cc1)C(C)=O
[reply] 94

[ask] Quick one: growth inhibition of O=C1c2ccccc2C(=O)N1CCCC(=O)n1cc(F)c(=O)[nH]c1=O ?
[reply] 64

[ask] Item under review: COc1ccc2[nH]cc([C@@H]3C4CCC(C4)[C@H]3NCc3cccc(CN[C@H]4C5CCC(C5)[C@@H]4c4c[nH]c5ccc(OC)cc45)c3)c2c1 . Reported growth inhibition?
[reply] 88
